All values here come from paper PMC8155022.

assay: phase 1 single ascending dose study, pharmacokinetics; format: in vivo, human; details: both sexes, human, plasma, po, 100 mg, 100 mg single oral dose, fed, n=9; mean (SD); read-out: AUClast
Measured Parameter: AUC(0-t)
# number then unit; no other words

Query CC1CCCN1C(=O)c1nc(C(=O)NCC(C)(C)O)sc1-c1ccc(C(O)(C(F)(F)F)C(F)(F)F)c(Cl)c1Cl (stereo not shown) [JNJ-61803534] yields AUC(0-t) of 89700 ng·h/mL

----------
assay: phase 1 single ascending dose study, pharmacokinetics; type: in vivo, human; conditions: both sexes, human, plasma, po, 100 mg, 100 mg single oral dose, fed, n=9; mean (SD)
Measured Parameter: Cmax (ng/mL)
Numbers only, in ng/mL.

Query CC1CCCN1C(=O)c1nc(C(=O)NCC(C)(C)O)sc1-c1ccc(C(O)(C(F)(F)F)C(F)(F)F)c(Cl)c1Cl (stereo not shown) [JNJ-61803534] yields Cmax of 602

----------
biological target: ADRA2B - AG (Homo sapiens, UniProt P18089); test: GPCR panel, cAMP or calcium FLIPR assays; format: cell-based; conditions: agonist
Sequence (P18089 whole entry): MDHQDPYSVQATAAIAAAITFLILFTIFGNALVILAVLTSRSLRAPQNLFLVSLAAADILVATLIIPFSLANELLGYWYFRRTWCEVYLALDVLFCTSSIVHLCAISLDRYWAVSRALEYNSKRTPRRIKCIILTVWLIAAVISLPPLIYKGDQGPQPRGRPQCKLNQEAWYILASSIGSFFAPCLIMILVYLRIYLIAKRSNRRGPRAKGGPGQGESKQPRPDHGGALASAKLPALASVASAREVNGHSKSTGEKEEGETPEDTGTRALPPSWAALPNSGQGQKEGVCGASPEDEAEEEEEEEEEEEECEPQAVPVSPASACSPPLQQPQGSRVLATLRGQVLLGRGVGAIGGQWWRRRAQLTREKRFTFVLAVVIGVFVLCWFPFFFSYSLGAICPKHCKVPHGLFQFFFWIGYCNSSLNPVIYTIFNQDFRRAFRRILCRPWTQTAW
Measured Parameter: EC50

Query CC1CCCN1C(=O)c1nc(C(=O)NCC(C)(C)O)sc1-c1ccc(C(O)(C(F)(F)F)C(F)(F)F)c(Cl)c1Cl (stereo not shown) yields EC50 of > 12.5 µM

----------
assay: phase 1 single ascending dose study, pharmacokinetics; assay type: in vivo, human; settings: both sexes, human, plasma, po, 100 mg, 100 mg single oral dose, fasted, n=9; mean (SD); read-out: AUC216h
Measured Parameter: AUC(0-t)
# number then unit; no other words

Query CC1CCCN1C(=O)c1nc(C(=O)NCC(C)(C)O)sc1-c1ccc(C(O)(C(F)(F)F)C(F)(F)F)c(Cl)c1Cl (stereo not shown) [JNJ-61803534] yields AUC(0-t) of 68.4 µg·h/mL

----------
Target: CCKA (Homo sapiens, UniProt P32238)
Sequence (P32238 1-428): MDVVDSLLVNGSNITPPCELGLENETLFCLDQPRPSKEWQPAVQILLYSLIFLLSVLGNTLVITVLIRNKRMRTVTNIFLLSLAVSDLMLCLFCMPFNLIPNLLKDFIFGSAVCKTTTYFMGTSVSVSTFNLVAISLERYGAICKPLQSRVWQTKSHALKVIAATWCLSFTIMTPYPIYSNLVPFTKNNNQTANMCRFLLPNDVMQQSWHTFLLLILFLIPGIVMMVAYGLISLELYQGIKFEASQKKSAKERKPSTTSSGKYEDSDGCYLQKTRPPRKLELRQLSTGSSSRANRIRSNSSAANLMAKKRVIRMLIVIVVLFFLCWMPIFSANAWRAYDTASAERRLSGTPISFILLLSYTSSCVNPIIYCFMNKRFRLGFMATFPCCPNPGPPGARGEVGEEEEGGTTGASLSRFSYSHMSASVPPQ
Assay: GPCR panel, cAMP or calcium FLIPR assays
Format: cell-based
Settings: agonist
Measured Parameter: EC50

Query CC1CCCN1C(=O)c1nc(C(=O)NCC(C)(C)O)sc1-c1ccc(C(O)(C(F)(F)F)C(F)(F)F)c(Cl)c1Cl (stereo not shown) yields EC50 of > 10 µM

----------
molecular target: D2L (Homo sapiens); experiment: GPCR panel, cAMP or calcium FLIPR assays; assay type: cell-based; conditions: agonist
Sequence (P14416 whole entry): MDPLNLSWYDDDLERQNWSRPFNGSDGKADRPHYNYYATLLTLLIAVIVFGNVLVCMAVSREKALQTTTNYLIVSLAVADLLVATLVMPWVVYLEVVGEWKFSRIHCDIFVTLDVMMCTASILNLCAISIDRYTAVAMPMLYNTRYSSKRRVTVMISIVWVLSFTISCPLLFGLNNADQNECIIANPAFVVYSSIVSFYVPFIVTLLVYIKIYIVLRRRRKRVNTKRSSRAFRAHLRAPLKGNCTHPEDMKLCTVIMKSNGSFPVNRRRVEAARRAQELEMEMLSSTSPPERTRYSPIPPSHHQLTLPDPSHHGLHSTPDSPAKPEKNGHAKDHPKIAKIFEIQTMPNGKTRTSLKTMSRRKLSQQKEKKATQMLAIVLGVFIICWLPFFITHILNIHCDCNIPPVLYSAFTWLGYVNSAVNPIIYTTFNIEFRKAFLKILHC
Measured Parameter: EC50

Query CC1CCCN1C(=O)c1nc(C(=O)NCC(C)(C)O)sc1-c1ccc(C(O)(C(F)(F)F)C(F)(F)F)c(Cl)c1Cl (stereo not shown) [JNJ-61803534] yields EC50 of > 12.5 µM
